# experiment: in vivo
# condition set: male, Sprague-Dawley, rat, plasma, po, 300 mg/kg
recorded metric: Tmax (min)

> print(dat)
                                   compound  recorded.metric  unit.of.measure  observed
1  CSCC[C@@H](N)C(=O)O [D-Methionine, D-methionine]             Tmax              min        30

* * *

# experiment: in vivo
# condition set: male, Sprague-Dawley, rat, plasma, po, 300 mg/kg, Mean Plasma Concentrations of D-Methionine, PO 300 mg/kg, suspension; 1.00 h
recorded metric: concentration at 1 h

> print(dat)
                                   compound       recorded.metric   observed
1  CSCC[C@@H](N)C(=O)O [D-Methionine, D-methionine]  concentration at 1 h  128 ng/mL
